# Tested on: human apolipoprotein B mRNA
# ASSAY_NAME: Inhibition of human apolipoprotein B mRNA levels in HepG2 cells, quantitative real-time PCR
# Type: cell-based
# RUN_CONDITIONS: HepG2 cells treated with 150 nM of compound; averages from two experiments; quantitative real-time PCR
In the oligonucleotide strings, read from the 5' end, every base follows the letter of its sugar. An asterisk marks phosphorothioate; unmarked linkages are phosphodiester. Other units and linkages are bracketed, terminal groups are in braces. A string of capitals states the bases alone. e = 2'-O-(2-methoxyethyl) (MOE); [5mC] = 5-methylcytosine; d = 2'-deoxy (DNA)
For each of the substances below, state its % INHIB (inhibition of human apolipoprotein B mRNA levels).
Numbers only, in %.

301029 (eG*eG*e[5mC]*eT*eG*dG*d[5mC]*dT*d[5mC]*dA*d[5mC]*dT*dG*dT*dA*eT*eG*eG*eT*eT; antisense) [compound 301029]
90

Field: % INHIB (inhibition of human apolipoprotein B mRNA levels). Fill in for each record below.
1. 271010 (antisense eT*eG*eT*e[5mC]*eA*d[5mC]*dA*dA*d[5mC]*dT*dT*dA*dG*dG*dT*eG*eG*e[5mC]*e[5mC]*e[5mC]) [compound 271010]
2. 301026 (eA*eT*eA*eT*eA*dG*dG*d[5mC]*dA*dG*dT*dT*dT*dG*dA*eA*eT*eT*eT*eT; antisense) [compound 301026]
3. 271023 (antisense e[5mC]*e[5mC]*e[5mC]*eT*eT*dG*d[5mC]*dT*d[5mC]*dT*dA*d[5mC]*d[5mC]*dA*dA*eT*eG*e[5mC]*eT*eT) [compound 271023]
4. 270996 (antisense e[5mC]*e[5mC]*eT*e[5mC]*eT*d[5mC]*dA*dG*d[5mC]*dT*d[5mC]*dA*dG*dT*dA*eA*e[5mC]*e[5mC]*eA*eG) [compound 270996]

RESULT:
57
57
44
0
